target: Follistatin (Homo sapiens) (UniProt P19883); experiment: follistatin binders on small-molecule microarrays, primary screen, biochemical, small-molecule microarray, 635/667 nm fluorescence (AID 1132); conditions: FST binding, 635 nm fluorescence, higher = more signal
Sequence (P19883 whole entry, looked up): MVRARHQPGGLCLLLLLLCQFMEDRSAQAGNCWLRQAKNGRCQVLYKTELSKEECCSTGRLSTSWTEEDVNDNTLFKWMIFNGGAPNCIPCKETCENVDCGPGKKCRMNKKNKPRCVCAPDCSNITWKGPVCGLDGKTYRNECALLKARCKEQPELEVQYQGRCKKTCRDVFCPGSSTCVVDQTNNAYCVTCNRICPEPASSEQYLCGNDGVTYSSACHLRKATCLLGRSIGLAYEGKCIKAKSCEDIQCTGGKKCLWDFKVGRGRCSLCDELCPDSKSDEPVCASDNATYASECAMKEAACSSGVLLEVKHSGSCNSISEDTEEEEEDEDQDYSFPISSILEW
Let's look at some compounds and their measured composite z-score.
Reported Metric: composite z-score

{"columns": ["Compound", "Reported Metric", "Obs Value"],
 "data": [
  ["CO[C@@H]1COC(=O)CC=C[C@@H](C)[C@H](OC)COC(=O)CC=C[C@H]1C", "composite z-score", 1.48],
  ["COC(=O)[C@@]1(Cc2ccc(OC)cc2)[C@H]2c3cc(C(=O)N(C)C)n(Cc4ccc(C)c(F)c4F)c3C[C@H]2CN1C(=O)c1ccccc1", "composite z-score", -0.266],
  ["O=C1O[C@@H](c2ccccc2)[C@@H](c2ccccc2)N2[C@@H](c3ccc(OCCO)cc3)[C@]3(C(=O)Nc4ccc(C#CCCO)cc43)[C@@H](C(=O)N3CCN(c4ncccn4)CC3)[C@H]12", "composite z-score", 1.34],
  ["C=CCC(OC(C)=O)[C@@H]1[C@@H](N(Cc2cc3ccccc3o2)C(=O)c2ccc(C)cc2)c2cc(OCCCO)ccc2N1C(=O)c1ccc2ccccc2n1 (stereo not given in full)", "composite z-score", 0.573],
  ["C=CCN1C(=O)[C@]2(O[C@H](CCn3cc(CCO)nn3)[C@@H]([Si](C)(C)c3ccc(OC)cc3)[C@@H]2C)c2cc(NC(=O)c3ccc(OC)cc3)ccc21", "composite z-score", 1.35],
  ["C=CC(=O)O[C@@H](Cc1ccccc1)[C@H]1C2C=CCCC=C2CN1Cc1cccc(Cl)c1 (stereo not given in full)", "composite z-score", -0.14],
  ["CC(C)C[C@@H]1NC(=O)[C@H]2C[C@@H](C(=O)NCCCCCC[N+](C)(C)C)[C@@H](c3ccc(O)cc3)N2C1=O", "composite z-score", 1.16],
  ["C[C@@H]1CC[C@H]2C(=O)N3[C@@H](CC[C@@H](C)[C@@H]3c3cccc(N4CCOCC4)c3)C(=O)N2[C@H]1c1cccc(N2CCOCC2)c1", "composite z-score", 1.16],
  ["CCCC[C@@H]1C[C@H]1[C@@H](NC(=O)c1ccccc1)c1ccccc1C(F)(F)F", "composite z-score", 0.243],
  ["CO[C@H]1COC(=O)CC=C[C@@H](C)COC(=O)[C@@H](C)NC(=O)CC=C[C@@H]1C", "composite z-score", 1.44],
  ["Cc1ccc(S(=O)(=O)N2[C@@H](c3ccccc3)C(C(=O)O)=CC[C@H]2c2ccccc2)cc1", "composite z-score", -0.12],
  ["C=CC[C@@]1(C(=O)N2CCOCC2)N=C(c2ccc(OCCCO)cc2)O[C@@H]1c1ccccc1", "composite z-score", -0.338],
  ["CCN1C(C)=C(C(=O)OC)[C@@H](c2ccccc2)N2C(=O)[C@](O)(C(=O)OC)[C@@H](c3ccccc3)C(C(=O)c3ccccc3)=C12", "composite z-score", 0.411],
  ["CO[C@H]1COC(=O)[C@H](CCSC)NC(=O)CC=C[C@@H](C)COC(=O)[C@@H](OCc2ccccc2)C=C[C@@H]1C", "composite z-score", 1.18],
  ["C=C(COC)/C(=C/C[C@@H](OC(C)=O)c1cccc(OCCO)c1)c1cc(C(=O)OC)ccc1OC", "composite z-score", 0.954]
]}
